The values you see were collected from PubChem BioAssay (NCI).

- Tested on: ACHN renal
- Assay text: NCI-60 one-dose screen, 48 h (100 = growth as untreated, 0 = no growth, -100 = all killed)
- Particulars: 10 µM unless noted
This is part of a sample that, as a whole, favours compounds with a hit. Of some 83,000 tested, about 20% had one in any assay. Active and inactive are the calls of the source. The calls were made as follows: active = growth percent below 10; inactive = the rest.
Listed below: growth values for each entry.
Result type: growth

{"Compound": "CCCCCCCCCCCCCCCCCCOc1ccccc1CC(=O)OCCC[N+](C)(C)C", "Result type": "growth", "Recorded result": "67.5% (inactive)"}
{"Compound": "NS(=O)(=O)c1ccc(-n2nc(C(=O)N/N=C\\c3ccc(F)cc3)cc2-c2ccc(Cl)cc2)cc1", "Result type": "growth", "Recorded result": "90% (inactive)"}
{"Compound": "N#C/C(=C/C=C/c1cccc(Cl)c1)S(=O)c1ccccc1 (stereo not drawn)", "Result type": "growth", "Recorded result": "-82.6% (active)"}
